targetEntity: D(2) dopamine receptor (Homo sapiens, UniProt P14416)
Sequence (P14416 whole entry): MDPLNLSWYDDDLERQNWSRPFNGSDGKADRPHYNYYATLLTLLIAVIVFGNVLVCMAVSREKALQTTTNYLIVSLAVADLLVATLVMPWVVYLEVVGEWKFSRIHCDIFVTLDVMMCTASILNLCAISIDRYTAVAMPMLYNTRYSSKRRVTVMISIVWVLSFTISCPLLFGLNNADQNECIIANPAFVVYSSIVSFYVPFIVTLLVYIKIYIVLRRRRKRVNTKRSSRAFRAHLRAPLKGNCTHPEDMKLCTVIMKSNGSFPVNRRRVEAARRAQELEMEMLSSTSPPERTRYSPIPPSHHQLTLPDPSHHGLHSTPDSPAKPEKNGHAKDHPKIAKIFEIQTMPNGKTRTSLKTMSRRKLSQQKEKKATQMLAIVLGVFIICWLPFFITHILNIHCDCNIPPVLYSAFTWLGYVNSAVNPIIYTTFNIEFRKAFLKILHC
assayText: Displacement of [3H]-raclopride fromd human Dopamine receptor D2A expressed in LtK- cells
Type: cell-based
Overview of recorded pKi for various compounds
Interpret pKi as the negative base-10 log of the concentration measured in mol/L.

Solved cases (3 shown):
- structureSmiles: "COc1ccccc1-c1cccc2c1-c1cccc3c1[C@@H](C2)N(C)CC3"
  property: "pKi"
  recordedMeasurement: 5.88
- structureSmiles: "CC(C)N1CCc2cccc3c2[C@H]1Cc1cccc(O)c1-3"
  property: "pKi"
  recordedMeasurement: 6.00
- structureSmiles: "CC(=O)c1cccc2c1-c1cccc3c1[C@@H](C2)N(C)CC3"
  property: "pKi"
  recordedMeasurement: 6.51

For the next question, use this compound.
Form field: reported pKi of CCCN1CCc2cccc3c2[C@H]1Cc1cccc(OC)c1-3 6.08

====

Measured Ki on D(1A) dopamine receptor (Rattus norvegicus, UniProt P18901) follows.
Sequence (P18901 whole entry): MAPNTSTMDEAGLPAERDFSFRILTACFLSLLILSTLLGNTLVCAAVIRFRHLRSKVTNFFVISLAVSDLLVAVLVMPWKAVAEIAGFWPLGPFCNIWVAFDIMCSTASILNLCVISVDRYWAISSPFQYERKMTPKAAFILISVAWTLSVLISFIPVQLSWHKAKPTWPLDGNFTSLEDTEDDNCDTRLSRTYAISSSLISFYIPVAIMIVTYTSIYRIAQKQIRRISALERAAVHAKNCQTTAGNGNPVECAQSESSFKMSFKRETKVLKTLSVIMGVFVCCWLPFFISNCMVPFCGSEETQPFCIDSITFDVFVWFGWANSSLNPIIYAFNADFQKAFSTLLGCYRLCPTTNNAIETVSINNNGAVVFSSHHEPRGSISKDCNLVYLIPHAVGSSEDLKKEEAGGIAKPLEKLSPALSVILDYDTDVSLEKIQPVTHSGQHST

- structureSmiles: "COc1cccc2c1-c1cccc3c1[C@@H](C2)N(Cc1ccccc1)CC3"
  Ki: "> 10 µM"
- structureSmiles: "Cc1cccc2c1-c1cccc3c1[C@@H](C2)N(C)CC3"
  Ki: "0.7 µM"
- structureSmiles: "COc1ccccc1-c1cccc2c1-c1cccc3c1[C@@H](C2)N(C)CC3"
  Ki: "> 3 µM"
- structureSmiles: "CC(C)N1CCc2cccc3c2[C@H]1Cc1cccc(O)c1-3"
  Ki: "> 10 µM"
- structureSmiles: "CN1CCc2cccc3c2[C@H]1Cc1cccc(C(N)=O)c1-3"
  Ki: "> 4 µM"
- structureSmiles: "CN1CCc2cccc3c2[C@H]1Cc1cccc(C#N)c1-3"
  Ki: "0.279 µM"

Then there is this molecule:
Checklist item: Ki tested on D(1A) dopamine receptor (Rattus norvegicus, UniProt P18901), entry COc1cccc2c1-c1cccc3c1[C@@H](C2)NCC3 , value? > 5 µM

====

targetEntity: 5-hydroxytryptamine receptor 1A (Rattus norvegicus, UniProt P19327)
Sequence (P19327 whole entry): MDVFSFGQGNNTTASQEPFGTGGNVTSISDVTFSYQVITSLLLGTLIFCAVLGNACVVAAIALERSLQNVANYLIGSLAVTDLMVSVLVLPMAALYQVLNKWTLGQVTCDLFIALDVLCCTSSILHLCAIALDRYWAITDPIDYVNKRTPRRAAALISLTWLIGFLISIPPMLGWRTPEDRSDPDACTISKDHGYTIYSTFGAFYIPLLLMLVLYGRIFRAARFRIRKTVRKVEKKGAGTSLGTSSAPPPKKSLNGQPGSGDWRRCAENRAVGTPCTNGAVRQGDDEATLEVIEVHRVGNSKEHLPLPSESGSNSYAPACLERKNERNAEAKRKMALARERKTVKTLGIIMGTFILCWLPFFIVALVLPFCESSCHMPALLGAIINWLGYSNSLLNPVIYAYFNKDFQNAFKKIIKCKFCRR
pKi: −log10 of the molar value.
Hi, to clarify the labels: t covers pKi from 8 upward, f covers anything below 8.

- structureSmiles: "CN1CCc2cccc3c2[C@H]1Cc1cccc(C(N)=O)c1-3"
  label: "f"

Determine whether measured pKi meets or exceeds 8 for CC(C)N1CCc2cccc3c2[C@H]1Cc1cccc(O)c1-3 f

Decide: pKi of Oc1cccc2c1-c1cccc3c1[C@@H](C2)N(Cc1ccccc1)CC3 >= 8? f

// inclusive: pKi at least 8? input: COc1cccc2c1-c1cccc3c1[C@@H](C2)N(C(C)C)CC3 f

Quick check: does Oc1cccc2c1-c1cccc3c1[C@@H](C2)NCC3 have pKi greater than or equal to 8? t

Does the reported pKi for CCc1cccc2c1-c1cccc3c1[C@@H](C2)N(C)CC3 fall at or above the 8 mark? t

Form field: pKi at least 8? Entry: CC(=O)c1cccc2c1-c1cccc3c1[C@@H](C2)N(C)CC3 f

Check if pKi >= 8 (inclusive). Item: COc1cccc2c1-c1cccc3c1[C@@H](C2)N(C)CC3 t

Hi team, for COc1cccc2c1-c1cccc3c1[C@@H](C2)N(Cc1ccccc1)CC3 , is the recorded pKi at or above 8? f

Textbook exercise: given the entry COc1ccccc1-c1cccc2c1-c1cccc3c1[C@@H](C2)N(C)CC3 , state whether its pKi is greater than or equal to 8. f

Does CCCN1CCc2cccc3c2[C@H]1Cc1cccc(OC)c1-3 have a reported pKi of at least 8? f

Test whether the compound CN1CCc2cccc3c2[C@H]1Cc1cccc(C#N)c1-3 records pKi of 8 or higher. f

====

targetEntity: D(1A) dopamine receptor (Rattus norvegicus)
property: pKi
Bear in mind: pKi is minus log10 of a mol/L concentration; give just that figure.

- structureSmiles: "CCc1cccc2c1-c1cccc3c1[C@@H](C2)N(C)CC3"
  pKi: 6.57
- structureSmiles: "CN1CCc2cccc3c2[C@H]1Cc1cccc(OS(=O)(=O)C(F)(F)F)c1-3"
  pKi: 6.41
- structureSmiles: "COc1cccc2c1-c1cccc3c1[C@@H](C2)N(C)CC3"
  pKi: 6.22

Now for the compound whose pKi we want.
For the compound Oc1cccc2c1-c1cccc3c1[C@@H](C2)NCC3 , what pKi is on record? 5.96

====

targetEntity: D(1A) dopamine receptor (Rattus norvegicus)
assayText: Affinity for dopamine receptor D1 binding measured by competition against [3H]-SCH- 23390 to rat striatal membrane
Design: species or system Striatum
property: Ki (µM)
Your answer should be a plain number; it is taken to be in µM.

Examples from the recorded data:
- structureSmiles: "CC(=O)c1cccc2c1-c1cccc3c1[C@@H](C2)N(C)CC3"
  valueUnit: "µM"
  Ki: 4.69
- structureSmiles: "C=Cc1cccc2c1-c1cccc3c1[C@@H](C2)N(C)CC3"
  valueUnit: "µM"
  Ki: 0.72

Shifting focus to the compound that follows.
Find the measured Ki: item CN1CCc2cccc3c2[C@H]1Cc1cccc(-c2ccccc2)c1-3 , target or system D(1A) dopamine receptor (Rattus norvegicus). 3.63

====

targetEntity: D(2) dopamine receptor (Homo sapiens, UniProt P14416)
assayText: Displacement of [3H]raclopride from human Dopamine receptor D2A
property: Ki (nM)
Your answer should be a plain number; it is taken to be in nM.

- structureSmiles: "Cc1cccc2c1-c1cccc3c1[C@@H](C2)N(C)CC3"
  Ki, nM: 201
- structureSmiles: "CCc1cccc2c1-c1cccc3c1[C@@H](C2)N(C)CC3"
  Ki, nM: 79.2
- structureSmiles: "COc1cccc2c1-c1cccc3c1[C@@H](C2)N(C(C)C)CC3"
  Ki, nM: 1000

Can you look up the measured Ki of CN1CCc2cccc3c2[C@H]1Cc1cccc(C#N)c1-3 for me? 183

Can you share its Ki? I mean this compound: C=Cc1cccc2c1-c1cccc3c1[C@@H](C2)N(C)CC3 177

Report Ki for CN1CCc2cccc3c2[C@H]1Cc1cccc(OS(=O)(=O)C(F)(F)F)c1-3 please. 195

# lookup: Ki of COc1cccc2c1-c1cccc3c1[C@@H](C2)N(C)CC3 551

Report Ki for CN1CCc2cccc3c2[C@H]1Cc1cccc(-c2ccccc2)c1-3 please. 233

====

targetEntity: D(2) dopamine receptor (Homo sapiens)
assayText: Displacement of [3H]-raclopride fromd human Dopamine receptor D2A expressed in LtK- cells
Assay type: cell-based
pKi: −log10 of the molar value.
property: pKi

Check out these entries, answers already filled in.
- structureSmiles: "Oc1cccc2c1-c1cccc3c1[C@@H](C2)NCC3"
  pKi: "< 6.00"
- structureSmiles: "COc1cccc2c1-c1cccc3c1[C@@H](C2)N(Cc1ccccc1)CC3"
  pKi: "< 6.00"
- structureSmiles: "Oc1cccc2c1-c1cccc3c1[C@@H](C2)N(Cc1ccccc1)CC3"
  pKi: "< 6.00"
- structureSmiles: "COc1cccc2c1-c1cccc3c1[C@@H](C2)NCC3"
  pKi: "< 6.00"

What measured pKi is associated with CN1CCc2cccc3c2[C@H]1Cc1cccc(C(N)=O)c1-3 on D(2) dopamine receptor (Homo sapiens)? < 5.00

====

targetEntity: 5-hydroxytryptamine receptor 1A (Rattus norvegicus)
Sequence (P19327 whole entry): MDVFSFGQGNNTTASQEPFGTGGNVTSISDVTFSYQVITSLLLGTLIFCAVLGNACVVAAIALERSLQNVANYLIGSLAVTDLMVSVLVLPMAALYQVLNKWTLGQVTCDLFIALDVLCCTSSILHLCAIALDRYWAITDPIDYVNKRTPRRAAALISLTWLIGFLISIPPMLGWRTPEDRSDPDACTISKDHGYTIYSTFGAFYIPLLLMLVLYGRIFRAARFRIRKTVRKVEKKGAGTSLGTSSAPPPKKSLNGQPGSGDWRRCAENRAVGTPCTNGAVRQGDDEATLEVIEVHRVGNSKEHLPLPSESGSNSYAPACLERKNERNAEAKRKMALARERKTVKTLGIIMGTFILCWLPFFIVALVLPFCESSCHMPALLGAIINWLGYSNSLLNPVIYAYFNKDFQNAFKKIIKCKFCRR
property: Ki (nM)
Just the number in nM, nothing appended.

- structureSmiles: "Cc1cccc2c1-c1cccc3c1[C@@H](C2)N(C)CC3"
  Ki [nM]: 14.4
- structureSmiles: "COc1cccc2c1-c1cccc3c1[C@@H](C2)NCC3"
  Ki [nM]: 8.3
- structureSmiles: "CN1CCc2cccc3c2[C@H]1Cc1cccc(OS(=O)(=O)C(F)(F)F)c1-3"
  Ki [nM]: 7.7

Now examine the next entry.
Given the entry C=Cc1cccc2c1-c1cccc3c1[C@@H](C2)N(C)CC3 , report its measured Ki. 6
